Experiment: Solubility of Form A at 20° C. and 40° C.
Type: physicochemical
Details: organic solvent or mixture, thermodynamic from solid; DMSO, 40° C., stirred 2 days
Procedure: For purity estimation and determination of the solubility in solution a generic in-house HPLC method was used. HPLC was performed using a Phenomenex Luna 3 μm C18 (50×4.6 mm) column and detected with a DAD detector, recording at 214 nm. To develop a Form A crystallization, a series of solubility data points was collected (Table 5). An amount of up to 15 mg was suspended in 150 μL and the mixture stirred for 2 days. Solubility was then determined by HPLC or by calculation if a solution was observed.
property_name: solubility at 2 days (mg/mL)
Give the value in mg/mL but do not write mg/mL after it.

Task: Tell me solubility at 2 days reported for CCCN(CCC)C(=O)C1=Cc2ccc(-c3ccc(C(=O)N4CCCC4)cc3)cc2N=C(N)C1 [Form A]
Result: 50.9
